MEASUREMENT PROTOCOL: in vivo
Assay type: in vivo, Sprague-Dawley (SD) rats
RECORDED CONDITIONS: Sprague-Dawley, rat, in vivo, po, 1 mg/kg, t1/2, rats, henagliflozin 1 mg/kg after sorafenib 100 mg/kg for 7 consecutive days, n = 6
OUTCOME MEASURE: half-life (min)
Field: numeric (min). Do not append units.

IN: What value of measured half-life is listed for "CCOc1ccc(Cc2cc([C@@]34OC[C@@](CO)(O3)[C@@H](O)[C@H](O)[C@H]4O)ccc2Cl)cc1F" ?
OUT: 306

---

MEASUREMENT PROTOCOL: in vivo
Format: in vivo, Sprague-Dawley (SD) rats
RECORDED CONDITIONS: Sprague-Dawley, rat, in vivo, po, […], Cmax, rats, empagliflozin […] after sorafenib 100 mg/kg for 7 consecutive days, n = 6
OUTCOME MEASURE: Cmax (ng/mL)
Field: numeric (ng/mL). Do not append units.

IN: What value of measured Cmax is listed for "OC[C@H]1O[C@@H](c2ccc(Cl)c(Cc3ccc(O[C@H]4CCOC4)cc3)c2)[C@H](O)[C@@H](O)[C@@H]1O" ?
OUT: 231

---

Type: in vivo, Sprague-Dawley (SD) rats
RECORDED CONDITIONS: Sprague-Dawley, rat, plasma, po, 100 mg/kg, MRT0–t, rats, sorafenib 100 mg/kg by gavage, alone, n = 6
OUTCOME MEASURE: MRT last (h)
Field: numeric (h). Do not append units.

IN: What value of measured MRT last is listed for "CNC(=O)c1cc(Oc2ccc(NC(=O)Nc3ccc(Cl)c(C(F)(F)F)c3)cc2)ccn1" ?
OUT: 37.2

---

MEASUREMENT PROTOCOL: in vivo
Type: in vivo, Sprague-Dawley (SD) rats
RECORDED CONDITIONS: Sprague-Dawley, rat, in vivo, po, 1 mg/kg, AUC0–∞, rats, henagliflozin 1 mg/kg after sorafenib 100 mg/kg for 7 consecutive days, n = 6
OUTCOME MEASURE: AUC(0-inf) (ng·h/mL)
Field: numeric (ng·h/mL). Do not append units.

IN: What value of measured AUC(0-inf) is listed for "CCOc1ccc(Cc2cc([C@@]34OC[C@@](CO)(O3)[C@@H](O)[C@H](O)[C@H]4O)ccc2Cl)cc1F" ?
OUT: 3460

---

Assay type: in vivo, Sprague-Dawley (SD) rats
RECORDED CONDITIONS: Sprague-Dawley, rat, plasma, po, 100 mg/kg, t1/2, rats, sorafenib 100 mg/kg after empagliflozin […] for 7 consecutive days, n = 6
OUTCOME MEASURE: half-life (h)
Field: numeric (h). Do not append units.

IN: What value of measured half-life is listed for "CNC(=O)c1cc(Oc2ccc(NC(=O)Nc3ccc(Cl)c(C(F)(F)F)c3)cc2)ccn1" ?
OUT: 47.6

---

MEASUREMENT PROTOCOL: in vivo
Assay type: in vivo, Sprague-Dawley (SD) rats
RECORDED CONDITIONS: Sprague-Dawley, rat, in vivo, po, 1 mg/kg, MRT0–t, rats, henagliflozin 1 mg/kg oral, alone, n = 6
OUTCOME MEASURE: MRT last (h)
Field: numeric (h). Do not append units.

IN: What value of measured MRT last is listed for CCOc1ccc(Cc2cc([C@@]34OC[C@@](CO)(O3)[C@@H](O)[C@H](O)[C@H]4O)ccc2Cl)cc1F [Henagliflozin] ?
OUT: 7.84

Origin of measurements: paper PMC12248229
